Test: Luminescence Cell-Based Dose Confirmation HTS to Identify Activators of 5'UTR Stem-Loop Driven Alpha-Synuclein mRNA Translation in H4 Neuroglioblastoma Cells. [Related pubchem assays: 1829 (Project Summary), 1814 (Primary HTS)]
Assay type: functional
Active and inactive are the calls of the source.

{"columns": ["compound", "EC50"],
 "data": [
  ["N#C/C(=C\\c1ccc(Cl)cc1)c1nc2ccc[nH]c-2n1", "> 120 µM (not active)"],
  ["Cc1ccc(C2NC(=O)c3ccccc3N2)s1 (stereo not given)", "> 120 µM (not active)"],
  ["Clc1ccccc1Nc1ncnc(-n2cccc2)n1", "0.153 µM (active)"],
  ["CCCCc1c(C)nn(-c2nnc3c4ccccc4n(C)c3n2)c1C", "> 120 µM (not active)"],
  ["CC(C)c1n[nH]c2c1C(c1ccco1)C(C#N)=C(N)O2 (stereo not given)", "> 120 µM (not active)"],
  ["O=C(CSc1nccn1-c1ncc(C(F)(F)F)cc1Cl)c1ccc(Br)cc1", "0.247 µM (active)"],
  ["c1ccc2c(Nc3nnc(-c4ccncc4)s3)cccc2c1", "0.196 µM (active)"],
  ["CSc1nnc2c(n1)c(C)nn2-c1ccc(C)cc1", "0.114 µM (active)"],
  ["O=C(NCCSc1ccccc1)c1cncc(Br)c1", "30.1 µM (active)"],
  ["Cc1ccc(NC2=C/C(=N/S(=O)(=O)c3cccs3)c3ccccc3C2=O)cc1C", "0.181 µM (active)"]
]}

====

Biological target: Carboxy-terminal domain RNA polymerase II polypeptide A small phosphatase 1 (Homo sapiens, UniProt Q9GZU7)
Sequence (Q9GZU7 whole entry, the tested form may be a part): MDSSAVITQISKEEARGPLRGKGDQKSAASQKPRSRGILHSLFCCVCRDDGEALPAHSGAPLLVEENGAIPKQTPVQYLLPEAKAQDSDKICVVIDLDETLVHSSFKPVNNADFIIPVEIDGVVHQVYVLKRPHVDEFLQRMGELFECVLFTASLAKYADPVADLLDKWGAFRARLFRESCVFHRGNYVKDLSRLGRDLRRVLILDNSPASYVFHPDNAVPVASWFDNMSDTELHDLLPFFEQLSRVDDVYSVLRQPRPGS
Experiment: inhibitors of CTDSP1, concentration-response testing, biochemical assay, absorbance-based, actives from ultra-high-throughput screening (AID 540297)
Format: functional
Calls of active or inactive are those of the source.
measured_metric: IC50

{"columns": ["molecule", "reported"],
 "data": [
  ["O=C(Nc1ccc(NC(=O)c2cccs2)cc1)c1ccc(Br)o1", "7.45 µM (active)"],
  ["O=C(COC(=O)/C=C/c1ccco1)Nc1ccc(F)cc1Cl", "36.6 µM (active)"],
  ["C[n+]1cn(CC(O)COCc2ccccc2)c2ccccc21 (configuration not stated)", "10.8 µM (active)"],
  ["O=C(O)CCn1cc(C=C2C(=O)NC(=S)NC2=O)c(-c2cccc(Br)c2)n1", "4.47 µM (active)"],
  ["COc1cc(/C=N/NC(=O)c2ccccc2O)ccc1OCC(=O)Nc1ccccc1", "5.46 µM (active)"],
  ["Cc1ccc(-n2nnc3c(=O)n(CC(=O)NCc4ccccc4)cnc32)cc1", "5.33 µM (active)"],
  ["CC1(C)CC(N2CCCC2)=CC(=[N+]2CCCC2)C1", "3.62 µM (active)"],
  ["O=C(NCCNCc1ccccc1)c1ccco1", "9.15 µM (active)"],
  ["Cc1cc(=O)oc2cc(NC(=O)c3cc(F)ccc3F)ccc12", "6.83 µM (active)"],
  ["COc1cc2c(C#CCO)c(-c3ccc(C#N)cc3)oc(=O)c2cc1OC", "8.45 µM (active)"],
  ["CC(=O)NC1=NC(=O)/C(=C/c2cc(C)n(-c3cccc(C(=O)O)c3)c2C)S1", "4.31 µM (active)"],
  ["O=C(CCS(=O)(=O)c1ccc(Br)cc1)NCCC1=CCCCC1", "9.5 µM (active)"]
]}

====

Biological target: Corticotropin-releasing factor receptor 2/Corticotropin-releasing factor-binding protein (Homo sapiens, UniProt P24387+Q13324)
Sequence (Q13324 whole entry): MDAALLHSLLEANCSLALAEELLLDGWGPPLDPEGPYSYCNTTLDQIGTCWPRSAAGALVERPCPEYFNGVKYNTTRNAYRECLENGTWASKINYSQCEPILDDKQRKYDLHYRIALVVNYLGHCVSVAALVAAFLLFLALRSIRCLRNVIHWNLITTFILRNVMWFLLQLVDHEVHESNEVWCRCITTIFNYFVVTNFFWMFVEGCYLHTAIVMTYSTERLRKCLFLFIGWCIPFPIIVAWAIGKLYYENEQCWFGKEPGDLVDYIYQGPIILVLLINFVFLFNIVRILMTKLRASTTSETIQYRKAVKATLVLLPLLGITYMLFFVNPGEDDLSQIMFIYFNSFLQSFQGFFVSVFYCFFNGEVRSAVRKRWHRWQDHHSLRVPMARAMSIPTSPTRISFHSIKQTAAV
Sequence (P24387 whole entry): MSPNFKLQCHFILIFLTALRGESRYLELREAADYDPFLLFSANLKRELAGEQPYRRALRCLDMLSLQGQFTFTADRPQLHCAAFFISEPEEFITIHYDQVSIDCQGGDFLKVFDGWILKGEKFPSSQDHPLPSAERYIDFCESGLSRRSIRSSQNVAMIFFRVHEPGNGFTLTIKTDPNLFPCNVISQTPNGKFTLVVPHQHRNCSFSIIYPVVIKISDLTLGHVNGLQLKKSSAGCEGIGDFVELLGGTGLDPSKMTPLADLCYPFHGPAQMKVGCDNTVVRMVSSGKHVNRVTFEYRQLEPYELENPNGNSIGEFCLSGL
Assay: activators of CRF receptor 2 with binding protein – uHTS hits, confirmation (AID 602473)
Assay type: functional
Conditions: read-out: EC50_Mean
Calls of active or inactive are those of the source.
Possible outcomes: active, inactive

{"columns": ["compound", "assigned_class"],
 "data": [
  ["CCOc1ccccc1/C=C(/NC(=O)c1ccccc1)C(=O)NC(C)c1ccccc1 (centres undefined)", "inactive"],
  ["Cn1c(N)c(-c2ccccc2)c2ccc([N+](=O)[O-])cc2c1=O", "active"],
  ["O=C(Nc1ccn(CCCNCc2ccc3c(c2)OCO3)c(=O)n1)OCc1ccccc1", "inactive"],
  ["O=[N+]([O-])c1cccc(-c2nc(-c3ccccn3)no2)c1", "inactive"],
  ["COc1ccccc1-c1ccc(SCc2cccc(F)c2)nn1", "inactive"],
  ["CCOC(=O)c1c[nH]nc1N=C(S)Nc1ccc(Cl)cc1", "inactive"],
  ["COC(=O)c1ccc(CN2C(=O)C(C)N(C(=O)c3c(F)cccc3F)c3ccccc32)cc1 (centres undefined)", "inactive"],
  ["O=C(NCCN1CCN(C(=O)NC2CCCCC2)CC1)NC1CCCCC1", "inactive"],
  ["O=C(Nc1ccc(S(=O)(=O)N2CCOCC2)cc1)c1ccc(Cl)c([N+](=O)[O-])c1", "inactive"],
  ["COc1cc(NC(=O)CSc2cc(C)c3cc(C)cc(C)c3n2)c(C(=O)O)cc1OC", "inactive"],
  ["CCCC(=O)Nc1ccc(-c2nc3cc(C)c(C)cc3o2)c(O)c1", "inactive"],
  ["CC(=O)NC(Cc1cccc(C)c1)C(=O)NC1CCN(c2ncccc2[N+](=O)[O-])CC1 (centres undefined)", "inactive"],
  ["CCCCC(C(=O)O)C(C)CC(=O)Nc1nncs1 (centres undefined)", "inactive"],
  ["O=C(O)c1ccc(/C=N/Nc2cccc(C(F)(F)F)c2)cc1", "inactive"],
  ["C=C(C)COc1ccc(-c2n[nH]cc2Oc2ccccc2OC)c(O)c1", "inactive"],
  ["CNP(=O)(Oc1ccccc1)OC12CC3CC(CC(C3)C1)C2 (centres undefined)", "inactive"],
  ["O=C(NC1CCCC1)C1CCC(CNS(=O)(=O)c2ccc(F)cc2)CC1 (centres undefined)", "inactive"],
  ["Cc1c(N=C2N=C(NC(=O)c3ccc(F)cc3)c3ccccc32)c(=O)n(-c2ccccc2)n1C", "active"],
  ["O=Nc1c(O)n(Cc2c(Cl)cccc2Cl)c2ccccc12", "active"]
]}

====

Test system: BJ
Assay: cells
Format: functional, cell-based
Conditions: Homo sapiens
Activity calls are given as the source filed them.
measured_metric: EC50

{"columns": ["compound", "measured_metric", "reported"],
 "data": [
  ["CN(C)c1nc(-c2ccccn2)nnc1-c1ccccc1", "EC50", "13.3 µM (inconclusive)"],
  ["Cc1ccc2nsnc2c1NC(=O)c1ccc(-c2cc(Cl)ccc2Cl)o1", "EC50", "14.4 µM (inconclusive)"],
  ["COc1cc(/C=C/c2ccc3cccc(O)c3n2)cc(Br)c1OC", "EC50", "35.8 µM (active)"],
  ["Nc1ncnc2c1ccn2[C@@H]1O[C@H](CO)[C@@H](O)[C@H]1O [TUBERCIDIN]", "EC50", "5.45 µM (inconclusive)"]
]}

====

Biological target: Small ubiquitin-related modifier 1 (Homo sapiens, UniProt P63165)
Sequence (P63165 whole entry): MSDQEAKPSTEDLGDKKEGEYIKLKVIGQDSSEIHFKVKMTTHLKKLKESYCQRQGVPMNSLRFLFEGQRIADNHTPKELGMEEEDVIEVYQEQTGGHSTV
Test: inhibitors of SUMO1 partner interactions, dose response, biochemical, FRET (AID 624383)
Type: functional
Conditions: read-out: IC50_Mean
The source made the active and inactive calls.
Possible outcomes: active, inactive

{"columns": ["compound", "assigned_class"],
 "data": [
  ["Cn1ccc(=Nc2ccc(NC(=O)c3ccc(/N=c4\\ccn(C)c5ccc([N+](=O)[O-])cc45)cc3)cc2)cc1", "active"],
  ["COc1ccc(C=NNc2ccc(S(=O)(=O)Nc3ccccc3C(=O)O)cc2[N+](=O)[O-])c(OC)c1", "inactive"],
  ["COC(=O)c1cc(O)cc(OC)c1Oc1cc(C)cc(O)c1C(=O)O [ASTERRIC ACID]", "active"],
  ["N#Cc1c(O)nc(SCC(=O)N2c3ccccc3Sc3ccccc32)nc1-c1ccccc1", "active"]
]}

====

Overview of reported IC50 across a group of compounds:
Molecular target: Induced myeloid leukemia cell differentiation protein Mcl-1 (Homo sapiens, UniProt Q07820)
Sequence (Q07820 whole entry): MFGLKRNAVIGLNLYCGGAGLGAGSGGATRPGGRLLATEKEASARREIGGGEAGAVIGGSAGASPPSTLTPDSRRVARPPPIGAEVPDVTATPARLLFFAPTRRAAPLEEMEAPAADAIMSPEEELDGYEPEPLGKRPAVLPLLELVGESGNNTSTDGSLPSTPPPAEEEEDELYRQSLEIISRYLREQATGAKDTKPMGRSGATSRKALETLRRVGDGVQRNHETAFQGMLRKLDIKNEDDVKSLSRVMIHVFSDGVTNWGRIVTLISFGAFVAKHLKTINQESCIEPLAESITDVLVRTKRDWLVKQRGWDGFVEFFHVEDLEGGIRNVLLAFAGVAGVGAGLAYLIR
Format: functional
The source made the active and inactive calls.
measured_metric: IC50

{"columns": ["sample_smiles", "test_target", "measured_metric", "reported"],
 "data": [
  ["COc1ccc(-c2csc(Nc3ccccc3)n2)cc1", "Induced myeloid leukemia cell differentiation protein Mcl-1 (Homo sapiens, UniProt Q07820)", "IC50", "10.3 µM (not active)"],
  ["CN1CCN(c2ccc([N+](=O)[O-])cc2/C=N/NC(=O)c2cccc([N+](=O)[O-])c2)CC1", "Induced myeloid leukemia cell differentiation protein Mcl-1 (Homo sapiens, UniProt Q07820)", "IC50", "3.57 µM (active)"],
  ["COc1cccc2c(C)c(C(=O)O)[nH]c12", "Induced myeloid leukemia cell differentiation protein Mcl-1 (Homo sapiens, UniProt Q07820)", "IC50", "2.81 µM (active)"],
  ["Cc1ccc(NC2=NC(=O)/C(=C/C=C/c3ccco3)S2)cc1", "Induced myeloid leukemia cell differentiation protein Mcl-1 (Homo sapiens, UniProt Q07820)", "IC50", "8.32 µM (active)"],
  ["O=C1c2cccc3cc([N+](=O)[O-])cc(c23)C(=O)N1/N=C/c1ccc(O)cc1O", "Induced myeloid leukemia cell differentiation protein Mcl-1 (Homo sapiens, UniProt Q07820)", "IC50", "1.44 µM (active)"]
]}
